Source: ChEMBL document CHEMBL2311296

- target.or.test.system: Phosphatidylinositol 4-kinase alpha (Homo sapiens, UniProt P42356)
- Sequence (P42356 whole entry): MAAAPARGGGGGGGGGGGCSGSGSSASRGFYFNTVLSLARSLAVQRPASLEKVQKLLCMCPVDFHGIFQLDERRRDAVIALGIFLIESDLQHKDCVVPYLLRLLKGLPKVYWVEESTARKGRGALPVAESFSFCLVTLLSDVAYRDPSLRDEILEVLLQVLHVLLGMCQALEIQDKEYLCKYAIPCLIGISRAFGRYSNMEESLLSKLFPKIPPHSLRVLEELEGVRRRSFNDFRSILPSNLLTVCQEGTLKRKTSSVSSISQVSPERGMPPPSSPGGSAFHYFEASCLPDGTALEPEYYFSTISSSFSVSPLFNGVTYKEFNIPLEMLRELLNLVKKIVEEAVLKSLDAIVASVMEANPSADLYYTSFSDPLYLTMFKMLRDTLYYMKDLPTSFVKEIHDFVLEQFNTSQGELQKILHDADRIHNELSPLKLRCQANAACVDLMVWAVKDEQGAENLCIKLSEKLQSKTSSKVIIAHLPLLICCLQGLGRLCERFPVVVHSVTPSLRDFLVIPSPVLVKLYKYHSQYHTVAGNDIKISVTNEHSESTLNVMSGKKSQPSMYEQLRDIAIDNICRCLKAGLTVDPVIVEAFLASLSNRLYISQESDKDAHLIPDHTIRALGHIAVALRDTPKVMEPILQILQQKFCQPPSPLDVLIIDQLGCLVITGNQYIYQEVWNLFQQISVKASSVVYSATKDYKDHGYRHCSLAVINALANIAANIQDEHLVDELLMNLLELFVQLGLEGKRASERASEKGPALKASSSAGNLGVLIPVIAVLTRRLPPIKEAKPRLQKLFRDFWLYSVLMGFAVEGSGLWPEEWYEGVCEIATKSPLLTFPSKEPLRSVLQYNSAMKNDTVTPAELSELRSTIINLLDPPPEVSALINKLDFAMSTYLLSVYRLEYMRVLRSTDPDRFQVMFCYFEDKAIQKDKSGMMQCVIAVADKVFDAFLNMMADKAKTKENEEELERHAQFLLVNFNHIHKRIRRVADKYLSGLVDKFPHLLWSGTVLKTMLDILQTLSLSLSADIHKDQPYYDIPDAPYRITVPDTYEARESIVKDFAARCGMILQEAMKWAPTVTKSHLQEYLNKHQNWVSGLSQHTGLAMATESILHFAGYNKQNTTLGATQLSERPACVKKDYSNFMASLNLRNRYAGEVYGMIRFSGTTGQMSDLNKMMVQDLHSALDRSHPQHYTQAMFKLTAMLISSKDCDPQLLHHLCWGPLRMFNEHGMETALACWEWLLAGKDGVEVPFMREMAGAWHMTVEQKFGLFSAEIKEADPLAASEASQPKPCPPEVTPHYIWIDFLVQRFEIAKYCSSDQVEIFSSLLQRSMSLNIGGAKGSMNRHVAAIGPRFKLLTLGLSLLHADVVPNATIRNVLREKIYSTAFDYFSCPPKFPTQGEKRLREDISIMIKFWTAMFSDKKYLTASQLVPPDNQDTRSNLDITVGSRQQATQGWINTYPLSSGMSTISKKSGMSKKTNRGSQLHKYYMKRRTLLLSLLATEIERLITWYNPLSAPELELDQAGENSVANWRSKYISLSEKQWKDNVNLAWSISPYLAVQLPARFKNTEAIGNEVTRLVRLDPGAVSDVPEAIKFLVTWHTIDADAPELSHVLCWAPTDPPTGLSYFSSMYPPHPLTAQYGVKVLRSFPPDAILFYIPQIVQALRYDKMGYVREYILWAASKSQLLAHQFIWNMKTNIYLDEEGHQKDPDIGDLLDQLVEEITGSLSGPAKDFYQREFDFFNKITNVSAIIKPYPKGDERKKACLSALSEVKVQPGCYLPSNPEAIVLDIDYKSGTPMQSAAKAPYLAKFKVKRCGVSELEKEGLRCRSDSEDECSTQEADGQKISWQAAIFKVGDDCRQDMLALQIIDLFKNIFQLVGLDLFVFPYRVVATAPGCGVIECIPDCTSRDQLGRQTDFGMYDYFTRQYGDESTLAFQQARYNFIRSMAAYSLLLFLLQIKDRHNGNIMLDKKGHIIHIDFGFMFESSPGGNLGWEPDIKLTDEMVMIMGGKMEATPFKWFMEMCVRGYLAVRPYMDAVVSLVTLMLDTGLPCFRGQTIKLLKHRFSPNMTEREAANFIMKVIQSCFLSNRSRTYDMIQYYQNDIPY
- assay.comment: Inhibition of PI4Kalpha (unknown origin) by ADP-GLO assay
measured.property: IC50

stdin: # returns recorded IC50 (system: Phosphatidylinositol 4-kinase alpha (Homo sapiens, UniProt P42356)) for "CC(C)=CC(=O)CCC(=O)N1CCN(Cc2cc3nc(-c4cccc5[nH]ncc45)nc(N4CCOCC4)c3s2)CC1"
stdout: > 1000 nM

---

- target.or.test.system: Phosphatidylinositol 4,5-bisphosphate 3-kinase catalytic subunit delta isoform (Homo sapiens, UniProt O00329)
- assay.comment: Inhibition of PI3Kdelta (unknown origin) by HTRF assay
measured.property: IC50 (µM)
Numeric only. Scale: µM

stdin: What value of IC50 has been reported for the following compound? "CC(C)=CC(=O)CCC(=O)N1CCN(Cc2cc3nc(-c4cccc5[nH]ncc45)nc(N4CCOCC4)c3s2)CC1"
stdout: 3.02

---

- target.or.test.system: Phosphatidylinositol 3-kinase catalytic subunit type 3 (Homo sapiens, UniProt Q8NEB9)
- Sequence (Q8NEB9 whole entry): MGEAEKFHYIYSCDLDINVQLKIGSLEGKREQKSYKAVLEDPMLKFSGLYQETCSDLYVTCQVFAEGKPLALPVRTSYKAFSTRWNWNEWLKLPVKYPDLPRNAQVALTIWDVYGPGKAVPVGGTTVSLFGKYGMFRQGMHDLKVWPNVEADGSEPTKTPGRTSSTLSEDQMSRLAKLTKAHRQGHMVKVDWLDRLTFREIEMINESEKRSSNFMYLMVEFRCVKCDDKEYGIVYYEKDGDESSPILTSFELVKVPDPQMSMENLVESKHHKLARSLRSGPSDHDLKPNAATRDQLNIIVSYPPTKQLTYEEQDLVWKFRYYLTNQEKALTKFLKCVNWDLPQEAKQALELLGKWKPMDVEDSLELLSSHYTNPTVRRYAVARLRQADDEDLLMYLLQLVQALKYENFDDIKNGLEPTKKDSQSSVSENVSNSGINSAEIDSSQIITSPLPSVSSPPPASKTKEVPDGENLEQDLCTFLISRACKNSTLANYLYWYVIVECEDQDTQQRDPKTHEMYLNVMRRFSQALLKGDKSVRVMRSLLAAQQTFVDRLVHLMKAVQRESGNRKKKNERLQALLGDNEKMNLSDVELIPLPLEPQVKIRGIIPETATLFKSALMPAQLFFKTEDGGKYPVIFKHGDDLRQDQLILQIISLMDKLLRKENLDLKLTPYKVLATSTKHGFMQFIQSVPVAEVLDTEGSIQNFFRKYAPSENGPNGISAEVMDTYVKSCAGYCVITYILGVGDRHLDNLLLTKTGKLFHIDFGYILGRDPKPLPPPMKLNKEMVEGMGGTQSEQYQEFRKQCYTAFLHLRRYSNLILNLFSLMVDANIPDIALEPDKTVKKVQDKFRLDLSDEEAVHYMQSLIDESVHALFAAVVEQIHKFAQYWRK
- assay.comment: Inhibition of PI3KC3 (unknown origin) by ADP-GLO assay
measured.property: IC50

stdin: What value of IC50 has been reported for the following molecule? "CC(C)=CC(=O)CCC(=O)N1CCN(Cc2cc3nc(-c4cccc5[nH]ncc45)nc(N4CCOCC4)c3s2)CC1"
stdout: > 1 µM

---

- target.or.test.system: UniProt:Q9NYA1
- Sequence (Q9NYA1 whole entry): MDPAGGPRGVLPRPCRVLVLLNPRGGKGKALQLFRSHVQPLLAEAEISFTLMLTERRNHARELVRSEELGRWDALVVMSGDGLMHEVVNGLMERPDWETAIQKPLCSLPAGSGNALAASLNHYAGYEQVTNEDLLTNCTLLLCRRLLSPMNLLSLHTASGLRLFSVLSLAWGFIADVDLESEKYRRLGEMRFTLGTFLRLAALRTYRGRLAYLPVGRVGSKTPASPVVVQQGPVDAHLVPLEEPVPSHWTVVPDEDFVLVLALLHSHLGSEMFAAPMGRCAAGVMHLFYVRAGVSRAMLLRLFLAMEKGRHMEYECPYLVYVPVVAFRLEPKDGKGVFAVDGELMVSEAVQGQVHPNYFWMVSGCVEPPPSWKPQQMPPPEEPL
measured.property: IC50

stdin: What value of IC50 has been reported for the following compound? "CC(C)=CC(=O)CCC(=O)N1CCN(Cc2cc3nc(-c4cccc5[nH]ncc45)nc(N4CCOCC4)c3s2)CC1"
stdout: > 1000 nM

---

- target.or.test.system: Phosphatidylinositol 4,5-bisphosphate 3-kinase catalytic subunit gamma isoform (Homo sapiens, UniProt P48736)
- Sequence (P48736 whole entry, canonical isoform): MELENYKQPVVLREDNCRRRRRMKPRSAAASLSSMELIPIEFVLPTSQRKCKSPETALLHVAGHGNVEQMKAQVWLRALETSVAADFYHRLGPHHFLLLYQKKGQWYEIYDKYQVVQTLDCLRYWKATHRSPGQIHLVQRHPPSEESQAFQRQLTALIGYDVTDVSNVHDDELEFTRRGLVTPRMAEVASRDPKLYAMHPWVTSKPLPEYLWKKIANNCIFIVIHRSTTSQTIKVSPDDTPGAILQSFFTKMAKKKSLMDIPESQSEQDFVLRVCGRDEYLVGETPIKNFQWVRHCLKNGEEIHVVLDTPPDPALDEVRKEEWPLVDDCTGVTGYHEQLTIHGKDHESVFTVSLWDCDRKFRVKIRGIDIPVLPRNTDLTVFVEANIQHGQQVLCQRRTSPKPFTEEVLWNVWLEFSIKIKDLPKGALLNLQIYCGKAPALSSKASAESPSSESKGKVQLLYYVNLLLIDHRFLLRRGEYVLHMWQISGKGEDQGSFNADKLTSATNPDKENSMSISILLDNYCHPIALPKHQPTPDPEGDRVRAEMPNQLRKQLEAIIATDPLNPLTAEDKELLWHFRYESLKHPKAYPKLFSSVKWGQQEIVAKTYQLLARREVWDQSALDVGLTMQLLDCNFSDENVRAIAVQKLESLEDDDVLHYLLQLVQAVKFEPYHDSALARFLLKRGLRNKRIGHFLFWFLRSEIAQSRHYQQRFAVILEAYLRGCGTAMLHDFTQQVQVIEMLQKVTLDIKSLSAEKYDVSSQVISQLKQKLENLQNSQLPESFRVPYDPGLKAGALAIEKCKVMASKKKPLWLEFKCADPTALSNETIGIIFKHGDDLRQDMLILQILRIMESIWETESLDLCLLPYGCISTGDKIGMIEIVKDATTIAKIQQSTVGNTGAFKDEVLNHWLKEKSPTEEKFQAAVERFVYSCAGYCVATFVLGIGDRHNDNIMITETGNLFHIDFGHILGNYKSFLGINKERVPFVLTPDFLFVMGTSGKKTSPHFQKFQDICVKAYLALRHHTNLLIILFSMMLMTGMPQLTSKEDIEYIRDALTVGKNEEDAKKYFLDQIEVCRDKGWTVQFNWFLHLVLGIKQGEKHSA
- assay.comment: Inhibition of PI3Kgamma (unknown origin) by HTRF assay
measured.property: pIC50
For clarity, pIC50 is expressed as the negative log10 of concentration in mol/L.

stdin: What value of pIC50 has been reported for the following compound? "CC(C)=CC(=O)CCC(=O)N1CCN(Cc2cc3nc(-c4cccc5[nH]ncc45)nc(N4CCOCC4)c3s2)CC1"
stdout: 6.62
